# credit: patent US12642270B2

# experimental.details: Log P by HPLC on reversed phase columns (EEC directive 79/831 Annex V.A8)
# Assay type: physicochemical
# measurement.conditions: method [a]: LC-UV, acidic range, 0.1% formic acid in water and acetonitrile
quantity.kind: LogP

Cc1c(C(=O)O)sc(I)c1Br [II.017] ... 2.86^[a]

Returns the measured LogP for the input molecule. Input: COC(=O)C(Cc1ccccc1)NC(=O)C(CC(=O)O)NC(=O)c1sc(C#N)c(Br)c1C (centres unmarked) [I.0501]
2.70^[a]

Again, but for COC(=O)c1sc(Br)c(Br)c1C(F)(F)F [II.019]
4.08^[a]

Same again, this time with CCOC(=O)c1sc(C#N)c(Cl)c1Cl [II.068]
3.50^[a]

Thanks! And N#Cc1sc(C(=O)O)c(Br)c1Cl [II.097] ?
1.64^[a]

What would you report for O=C(O)c1sc(Br)c(Cl)c1Cl [II.010] ?
2.51^[a]

// repeat for O=C(O)c1sc(Br)c(Cl)c1Br [II.070] and report
2.41^[a]
